Tested system: Serine/threonine-protein kinase A-Raf (Homo sapiens, UniProt P10398)
Sequence (P10398 whole entry): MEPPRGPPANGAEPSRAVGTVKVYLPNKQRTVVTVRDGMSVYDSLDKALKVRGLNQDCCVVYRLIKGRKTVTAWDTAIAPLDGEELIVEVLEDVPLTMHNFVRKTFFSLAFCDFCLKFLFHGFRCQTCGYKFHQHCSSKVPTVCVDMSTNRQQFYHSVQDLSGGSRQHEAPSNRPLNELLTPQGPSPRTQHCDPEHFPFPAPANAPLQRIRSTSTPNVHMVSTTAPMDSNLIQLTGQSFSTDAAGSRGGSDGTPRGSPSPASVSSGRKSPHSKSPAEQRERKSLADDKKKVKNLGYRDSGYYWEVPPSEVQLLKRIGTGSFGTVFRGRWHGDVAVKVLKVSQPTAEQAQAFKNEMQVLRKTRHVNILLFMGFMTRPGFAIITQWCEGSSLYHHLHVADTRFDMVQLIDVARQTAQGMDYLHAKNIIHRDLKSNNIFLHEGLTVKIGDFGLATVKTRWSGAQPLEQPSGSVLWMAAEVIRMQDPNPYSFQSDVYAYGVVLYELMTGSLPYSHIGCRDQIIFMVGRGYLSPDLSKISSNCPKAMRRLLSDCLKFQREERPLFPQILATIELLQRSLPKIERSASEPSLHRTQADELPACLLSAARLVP
pIC50: −log10 of the molar value.
Attribute measured: pIC50

Sample answers from the record:
>  <Compound structure>
CCCS(=O)(=O)Nc1cccc(C(=O)c2c[nH]c3ncncc23)c1F

>  <Tested system>
Serine/threonine-protein kinase A-Raf (Homo sapiens, UniProt P10398)

>  <pIC50>
≥ 5.00

$$$$
>  <Compound structure>
O=C(c1c(F)ccc(NS(=O)(=O)c2cccc(OC(F)F)c2)c1F)c1c[nH]c2ncncc12

>  <Tested system>
Serine/threonine-protein kinase A-Raf (Homo sapiens, UniProt P10398)

>  <pIC50>
≥ 5.00

$$$$

Shifting focus to the compound that follows.
Dear colleague, I am looking for the recorded pIC50 of the following compound: O=C(c1cccc(NS(=O)(=O)c2ccc(C(F)(F)F)cc2)c1F)c1c[nH]c2ncncc12
≥ 5.00
